Recorded measurements of IC50, one per entry
biological target: full-length human PRMT8 isoform 1 (Homo sapiens); assay: PRMT8 Biochemical Assay (3H-SAM Flashplate, peptide substrate); details: single experiment or average of multiple experiments; read-out: Biochemical IC50 PRMT8
API: value field is a number in nM; no unit string.

Given the compound CCN(C(=O)CCC(C)C)[C@H]1CC[C@@H](c2n[nH]cc2CN(C)CCNC)CC1 [Compound 251] , what is its reported IC50?
20.7

* * *

target: UniProt:Q96LA8; assay: PRMT6 Biochemical Assay (3H-SAM Flashplate, peptide substrate); conditions: single experiment or average of multiple experiments; read-out: Biochemical IC50 PRMT6
Counter-ions that a name gives are not always drawn.
attribute measured: pIC50
Scale for pIC50: -log10 of concentration given in mol/L; no unit attached.

CNCCN(C)Cc1c[nH]nc1[C@H]1CC[C@@H](O)CC1 [Compound 217, trifluoroacetate]
7.47

Kindly review the next molecule as well.
Which measured pIC50 belongs to CNCCN(C)Cc1c[nH]nc1C#Cc1ccc(F)cc1 [Compound 4] , tested on UniProt:Q96LA8?
7.70

* * *

target: full-length human PRMT6 (Flag- and His-tagged) (Homo sapiens, UniProt Q96LA8); assay: PRMT6 Biochemical Assay (3H-SAM Flashplate, peptide substrate); details: read-out: Biochemical IC50 PRMT6
Sequence (Q96LA8 with tags, fused parts or gaps): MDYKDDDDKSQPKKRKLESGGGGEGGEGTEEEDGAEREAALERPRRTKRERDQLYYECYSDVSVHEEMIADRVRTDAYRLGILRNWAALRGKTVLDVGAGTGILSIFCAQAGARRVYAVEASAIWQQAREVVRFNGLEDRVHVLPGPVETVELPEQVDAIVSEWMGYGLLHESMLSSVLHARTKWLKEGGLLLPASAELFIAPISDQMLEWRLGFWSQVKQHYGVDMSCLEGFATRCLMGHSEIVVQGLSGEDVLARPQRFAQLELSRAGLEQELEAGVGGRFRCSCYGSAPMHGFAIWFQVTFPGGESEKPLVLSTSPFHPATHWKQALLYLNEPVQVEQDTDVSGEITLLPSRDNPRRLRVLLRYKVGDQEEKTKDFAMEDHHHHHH
// IC50 lookup, one value per entry

CNCCN(C)Cc1c[nH]nc1C1CC(C)(C)OC(C)(C)C1 [Compound 59]
101 to 1000 nM
CNCCN(C)Cc1c[nH]nc1[C@H]1CC[C@H](OC2CCCCC2)CC1 [Compound 139]
< 100 nM
CNCCN(C)Cc1c[nH]nc1C1CC(OCC(C)C)CC(OCC(C)C)C1 (stereo not shown) [Compound 122]
> 10000 nM
CNCCN(C)Cc1c[nH]nc1[C@H]1CC[C@H](C(=O)N(CCCOC)CCC(C)C)CC1 [Compound 213]
< 100 nM
CNCCN(C)Cc1c[nH]nc1[C@H]1CC[C@@]2(CCOC2(C)C)CC1 [Compound 106]
< 100 nM
CCOC1CC(OCC)CC2(CCC(c3n[nH]cc3CN(C)CCNC)CC2)C1 (stereo not shown) [Compound 159]
< 100 nM

Now let's try a different one.
Hello, I am looking for reported IC50 with full-length human PRMT6 (Flag- and His-tagged) (Homo sapiens, UniProt Q96LA8) for CNCCN(C)Cc1cnn(C)c1C1CCC2(CCCC2)CC1 [Compound 49] . Could you help?
< 100 nM

* * *

biological target: full-length human PRMT8 isoform 1 (Homo sapiens, UniProt Q9NR22); assay: PRMT8 Biochemical Assay (3H-SAM Flashplate, peptide substrate); conditions: single experiment or average of multiple experiments; read-out: Biochemical IC50 PRMT8
Sequence (Q9NR22 whole entry, canonical isoform): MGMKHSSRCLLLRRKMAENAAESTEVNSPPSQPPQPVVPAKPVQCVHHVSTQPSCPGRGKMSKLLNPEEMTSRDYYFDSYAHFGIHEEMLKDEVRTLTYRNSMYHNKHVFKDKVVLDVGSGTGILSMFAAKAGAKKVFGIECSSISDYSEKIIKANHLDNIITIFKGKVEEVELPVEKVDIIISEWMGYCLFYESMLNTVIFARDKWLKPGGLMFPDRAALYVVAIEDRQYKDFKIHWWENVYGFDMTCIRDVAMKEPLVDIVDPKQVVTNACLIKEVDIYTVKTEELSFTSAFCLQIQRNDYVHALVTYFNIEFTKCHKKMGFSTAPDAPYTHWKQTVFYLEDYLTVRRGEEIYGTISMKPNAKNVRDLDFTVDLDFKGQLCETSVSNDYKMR
Where a name gives a salt, the structure may show the parent alone.
Overview of reported pIC50 across a group of compounds:
The read-out pIC50 is expressed as -log10 of concentration in moles per litre.

Sample records with pIC50:
CCN(C(=O)CC1CCOCC1)[C@H]1CC[C@@H](c2n[nH]cc2CN(C)CCNC)CC1 [Compound 196]
6.38
CN(CCN)Cc1c[nH]nc1CCc1ccccc1 [Compound 9]
6.12
CNCCN(C)Cc1c[nH]nc1[C@H]1CC[C@@H](C(=O)N(CCCOC)CCC(C)C)CC1 [Compound 214]
7.56
Cc1ccc(/C=C/c2n[nH]cc2CN(C)CCN)cc1 [Compound 8]
6.44
CNCCN(C)Cc1c[nH]nc1[C@H]1CC[C@@]2(CCCO2)CC1 [Compound 143]
7.48

Please report the recorded pIC50 for CNCCN(C)Cc1c[nH]nc1[C@H]1CC[C@H](O)CC1 [Compound 227, trifluoroacetate] .
7.45

Same read-out for CNCCN(C)Cc1c[nH]nc1[C@H]1CC[C@H](N(CCOc2ccccc2)C(=O)CCCOC)CC1 [Compound 229] ?
7.80

What about CN(CCN)Cc1c[nH]nc1/C=C/c1cccc(F)c1 [Compound 20] ?
6.33

Thanks! And CNCCN(C)Cc1c[nH]nc1[C@H]1CC[C@H](N(CCOc2ccccc2)C(=O)CCOC)CC1 [Compound 219] ?
7.82

One more compound: CCOCC1CC(c2n[nH]cc2CN(C)CCNC)CCC1(C)C (stereo not shown) [Compound 202]
7.57

Entry CNCCN(C)Cc1c[nH]nc1C1CCN(CC(C)C)CC1 [Compound 39] please
6.44

Moving on to CNCCN(C)Cc1c[nH]nc1[C@H]1CC[C@@]2(CCOC2)CC1 [Compound 141]
7.53

Here is the next compound: CNCCN(C)Cc1c[nH]nc1C1CCC(COCCOC)(COCCOC)CC1 [Compound 60]
6.89

Now the compound CNCCN(C)Cc1c[nH]nc1C1CCC(C)(C)C(C(=O)NCCC(C)C)C1 (stereo not shown) [Compound 91]
7.54

Try this compound next: CN(CCN)Cc1c[nH]nc1/C=C/c1ccc(F)cc1F [Compound 13]
6.52

Another: CNCCN(C)Cc1c[nH]nc1[C@H]1CC[C@H](N(CCOC)C(=O)CCC(C)C)CC1 [Compound 254]
7.36
